Target: T1, mouse serum albumin (mouse, UniProt P07724 25-608)
T1 construct: also called MSA
T1 sequence (P07724 25-608 limits assumed): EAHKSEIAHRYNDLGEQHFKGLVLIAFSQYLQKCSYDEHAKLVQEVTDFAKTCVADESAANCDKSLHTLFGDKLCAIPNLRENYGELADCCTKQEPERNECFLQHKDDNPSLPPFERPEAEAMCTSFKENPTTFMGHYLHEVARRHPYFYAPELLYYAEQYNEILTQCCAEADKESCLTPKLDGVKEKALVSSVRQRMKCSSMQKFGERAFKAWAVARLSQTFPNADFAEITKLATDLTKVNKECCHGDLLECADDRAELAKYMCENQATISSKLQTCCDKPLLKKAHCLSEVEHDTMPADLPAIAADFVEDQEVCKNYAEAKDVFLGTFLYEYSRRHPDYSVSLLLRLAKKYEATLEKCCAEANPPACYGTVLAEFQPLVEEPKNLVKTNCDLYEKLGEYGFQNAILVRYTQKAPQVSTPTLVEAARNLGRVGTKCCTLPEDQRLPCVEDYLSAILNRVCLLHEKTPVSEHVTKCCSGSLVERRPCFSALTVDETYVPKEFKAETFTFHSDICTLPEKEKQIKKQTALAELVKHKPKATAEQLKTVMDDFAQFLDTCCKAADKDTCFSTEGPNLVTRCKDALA
Assay: SPR (Biacore T200), albumin amine-coupled to CM5, Affimer analyte, pH 7.4
measured metric: kon (M⁻¹ s⁻¹)
Just the number please, in M⁻¹ s⁻¹, no unit attached.

The cases that follow already have their kon on record.
HSA-41 (designed binder, also called HSA-41 parent; HSA-41 AH parent) MIPRGLSEAKPATPEIQEIVDKVKPQLEEKTNETYGKLEAVQYKTQVLANFFQRRWPGSTNYYIKVRAGDNKYMHLKVFNGPWKFRNTDRGADRVLTGYQVDKNKDDELTGFHHHHHH ... 2.04e+06
HSA-18 (designed binder, also called HSA-18 monomer) MIPRGLSEAKPATPEIQEIVDKVKPQLEEKTNETYGKLEAVQYKTQVLADWWQAKWPHSTNYYIKVRAGDNKYMHLKVFNGPYKVHQSSGGADRVLTGYQVDKNKDDELTGFHHHHHH ... 34100
HSA-20 (designed binder) MIPRGLSEAKPATPEIQEIVDKVKPQLEEKTNETYGKLEAVQYKTQVLAGYWAAKWPGSTNYYIKVRAGDNKYMHLKVFNGPFPNTSYDLQADRVLTGYQVDKNKDDELTGFHHHHHH ... 115000

Consider now this further binder.
## Task Give the value of kon reported for the following: HSA-36 (designed binder) MIPRGLSEAKPATPEIQEIVDKVKPQLEEKTNETYGKLEAVQYKTQVLAGHYARYWPGSTNYYIKVRAGDNKYMHLKVFNGPWAQKSKVHQADRVLTGYQVDKNKDDELTGFHHHHHH
## Result 726000
